# test system: Amyloid-beta precursor protein (Homo sapiens)
# experimental details: Inhibition of pH-click Amyloid beta (1 to 42) (unknown origin) aggregation after 24 hrs by Thioflavin-T fluorescence assay
# Parameters: concentration or dose not given beside the values
# condition notes: concentration not given here
*1 amine or outer side, *2 acyl side, *3 side chain or, on linkers, in order; H or OH if unused. Where a SMILES comes first, the peptide text is derived from it. [ ]: non-standard residue; d: D form. X1 = O=C(CCc1cccc2c1oc1c(CCN[*:1])cccc12)[*:2]; PEG8 = NCCOCCOCCOCCOCCOCCOCCOCCOCCC(=O)O; Met(O) = CS(=O)CC[C@H](N)C(=O)O
Here the recorded inhibition is given for each entry.
Just the number in %, nothing appended.

The following compounds have reported results that may help.
[
  {
    "compound": "CC[C@H](C)[C@H](NC(=O)CCc1cccc2c1oc1c(CCNC(=O)[C@H](CCCCN)NC(=O)[C@H](CC(N)=O)NC(=O)[C@H](CO)NC(=O)CNC(=O)CCOCCOCCOCCOCCOCCOCCOCCOCCN)cccc12)C(=O)NCC(=O)N[C@@H](CC(C)C)C(=O)N[C@@H](CC[S+](C)[O-])C(=O)O (stereo partly drawn) (H-[PEG8]GSNK[X1]IGL[Met(O)]-OH)",
    "test system": "Amyloid-beta precursor protein (Homo sapiens)",
    "metric name": "inhibition",
    "result unit": "%",
    "measured value": 9
  },
  {
    "compound": "CC[C@H](C)[C@H](NC(=O)CCc1cccc2c1oc1c(CCNC(=O)[C@H](CC(N)=O)NC(=O)[C@H](CO)NC(=O)CNC(=O)[C@@H](NC(=O)CCOCCOCCOCCOCCOCCOCCOCCOCCN)C(C)C)cccc12)C(=O)N[C@H](C(=O)NCC(=O)N[C@@H](CC(C)C)C(=O)O)[C@@H](C)CC (H-[PEG8]VGSN[X1]IIGL-OH)",
    "test system": "Amyloid-beta precursor protein (Homo sapiens)",
    "metric name": "inhibition",
    "result unit": "%",
    "measured value": 56
  }
]

Kindly consider the entry below.
Lab note: compound CC[C@H](C)[C@H](NC(=O)[C@@H](NC(=O)[C@H](C)NC(=O)CNC(=O)CCc1cccc2c1oc1c(CCNC(=O)CNC(=O)[C@@H](NC(=O)[C@H](CC(=O)O)NC(=O)[C@H](CCC(=O)O)NC(=O)CCOCCOCCOCCOCCOCCOCCOCCOCCN)C(C)C)cccc12)[C@@H](C)CC)C(=O)O (H-[PEG8]EDVG[X1]GAII-OH) tested on Amyloid-beta precursor protein (Homo sapiens); recorded inhibition was 13

###

# test system: Amyloid-beta precursor protein (Homo sapiens) (UniProt P05067)
# Sequence (P05067 whole entry): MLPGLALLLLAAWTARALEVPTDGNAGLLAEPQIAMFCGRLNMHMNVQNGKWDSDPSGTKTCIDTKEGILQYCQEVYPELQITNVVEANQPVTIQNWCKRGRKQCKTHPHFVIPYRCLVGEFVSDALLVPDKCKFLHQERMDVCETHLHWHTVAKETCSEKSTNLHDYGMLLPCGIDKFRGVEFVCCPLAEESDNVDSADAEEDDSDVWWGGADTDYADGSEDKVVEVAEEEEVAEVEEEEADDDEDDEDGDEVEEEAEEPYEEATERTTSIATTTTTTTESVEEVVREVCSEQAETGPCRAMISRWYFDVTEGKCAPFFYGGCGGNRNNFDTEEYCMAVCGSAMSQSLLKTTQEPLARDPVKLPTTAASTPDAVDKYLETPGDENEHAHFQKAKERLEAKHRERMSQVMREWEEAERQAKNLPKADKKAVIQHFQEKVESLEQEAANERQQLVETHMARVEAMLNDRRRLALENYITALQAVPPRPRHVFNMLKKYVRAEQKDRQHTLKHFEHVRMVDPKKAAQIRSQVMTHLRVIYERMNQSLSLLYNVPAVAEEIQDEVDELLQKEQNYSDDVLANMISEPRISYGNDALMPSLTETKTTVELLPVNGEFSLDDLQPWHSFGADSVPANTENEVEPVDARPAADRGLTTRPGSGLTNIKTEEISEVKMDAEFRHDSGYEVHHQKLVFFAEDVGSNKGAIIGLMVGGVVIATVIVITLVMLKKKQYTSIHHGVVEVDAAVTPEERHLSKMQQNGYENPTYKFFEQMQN
# experimental details: Inhibition of pH-click Amyloid beta (1 to 42) (unknown origin) aggregation after 24 hrs by Thioflavin-T fluorescence assay
# Set-up: concentration or dose not given beside the values
# condition notes: concentration not given here
*1 amine or outer side, *2 acyl side, *3 side chain or, on linkers, in order; H or OH if unused. Where a SMILES comes first, the peptide text is derived from it. [ ]: non-standard residue; d: D form. X1 = O=C(CCc1cccc2c1oc1c(CCN[*:1])cccc12)[*:2]; PEG8 = NCCOCCOCCOCCOCCOCCOCCOCCOCCC(=O)O; Met(O) = CS(=O)CC[C@H](N)C(=O)O
metric name: inhibition (%)
Just the number in %, nothing appended.

The following molecules have reported results that may help.
[
  {
    "molecule": "CC(C)C[C@H](NC(=O)CNC(=O)CCc1cccc2c1oc1c(CCNC(=O)CNC(=O)[C@H](CCCCN)NC(=O)[C@H](CC(N)=O)NC(=O)[C@H](CO)NC(=O)CCOCCOCCOCCOCCOCCOCCOCCOCCN)cccc12)C(=O)N[C@@H](CC[S+](C)[O-])C(=O)N[C@H](C(=O)O)C(C)C (some centres not stated) (H-[PEG8]SNKG[X1]GL[Met(O)]V-OH)",
    "test system": "Amyloid-beta precursor protein (Homo sapiens) (UniProt P05067)",
    "result unit": "%",
    "inhibition": 13
  },
  {
    "molecule": "CC(C)C[C@H](NC(=O)CNC(=O)CCc1cccc2c1oc1c(CCNC(=O)CNC(=O)[C@H](CCCCN)NC(=O)[C@H](CC(N)=O)NC(=O)[C@@H](N)CO)cccc12)C(=O)N[C@@H](CC[S+](C)[O-])C(=O)N[C@H](C(=O)NCCOCCOCCOCCOCCOCCOCCOCCOCCC(=O)O)C(C)C (some centres not stated) (H-SNKG[X1]GL[Met(O)]V[PEG8]-OH)",
    "test system": "Amyloid-beta precursor protein (Homo sapiens) (UniProt P05067)",
    "result unit": "%",
    "inhibition": 7
  },
  {
    "molecule": "CC[C@H](C)[C@H](NC(=O)[C@H](C)NC(=O)CCc1cccc2c1oc1c(CCNC(=O)[C@H](CO)NC(=O)CNC(=O)[C@@H](NC(=O)[C@H](CC(=O)O)NC(=O)CCOCCOCCOCCOCCOCCOCCOCCOCCN)C(C)C)cccc12)C(=O)N[C@H](C(=O)NCC(=O)O)[C@@H](C)CC (H-[PEG8]DVGS[X1]AIIG-OH)",
    "test system": "Amyloid-beta precursor protein (Homo sapiens) (UniProt P05067)",
    "result unit": "%",
    "inhibition": 10
  },
  {
    "molecule": "CC[C@H](C)[C@H](NC(=O)CCc1cccc2c1oc1c(CCNC(=O)[C@H](CC(N)=O)NC(=O)[C@H](CO)NC(=O)CNC(=O)[C@@H](N)C(C)C)cccc12)C(=O)N[C@H](C(=O)NCC(=O)N[C@@H](CC(C)C)C(=O)NCCOCCOCCOCCOCCOCCOCCOCCOCCC(=O)O)[C@@H](C)CC (H-VGSN[X1]IIGL[PEG8]-OH)",
    "test system": "Amyloid-beta precursor protein (Homo sapiens) (UniProt P05067)",
    "result unit": "%",
    "inhibition": 49
  }
]

// inhibition value for CC[C@H](C)[C@H](NC(=O)CCc1cccc2c1oc1c(CCNC(=O)[C@H](CCCCN)NC(=O)[C@H](CC(N)=O)NC(=O)[C@H](CO)NC(=O)CN)cccc12)C(=O)NCC(=O)N[C@@H](CC(C)C)C(=O)N[C@@H](CC[S+](C)[O-])C(=O)NCCOCCOCCOCCOCCOCCOCCOCCOCCC(=O)O (some centres not stated) (H-GSNK[X1]IGL[Met(O)][PEG8]-OH) : 12

// inhibition value for CC[C@H](C)[C@H](NC(=O)[C@H](C)NC(=O)CNC(=O)CCc1cccc2c1oc1c(CCNC(=O)CNC(=O)[C@@H](NC(=O)[C@H](CC(=O)O)NC(=O)[C@@H](N)CCC(=O)O)C(C)C)cccc12)C(=O)N[C@H](C(=O)NCCOCCOCCOCCOCCOCCOCCOCCOCCC(=O)O)[C@@H](C)CC (H-EDVG[X1]GAII[PEG8]-OH) : 16

###

# test system: UniProt:P05067
# experimental details: Inhibition of pH-click Amyloid beta (1 to 42) (unknown origin) aggregation after 48 hrs by Thioflavin-T fluorescence assay
# Design: concentration or dose not given beside the values
# condition notes: concentration not given here
*1 amine or outer side, *2 acyl side, *3 side chain or, on linkers, in order; H or OH if unused. Where a SMILES comes first, the peptide text is derived from it. [ ]: non-standard residue; d: D form. X1 = O=C(CCc1cccc2c1oc1c(CCN[*:1])cccc12)[*:2]; PEG8 = NCCOCCOCCOCCOCCOCCOCCOCCOCCC(=O)O; Met(O) = CS(=O)CC[C@H](N)C(=O)O
Here the recorded inhibition is given for each entry.

The following molecules have reported results that may help.
[
  {
    "molecule": "CC[C@H](C)[C@H](NC(=O)[C@H](C)NC(=O)CNC(=O)CCc1cccc2c1oc1c(CCNC(=O)CNC(=O)[C@@H](NC(=O)[C@H](CC(=O)O)NC(=O)[C@@H](N)CCC(=O)O)C(C)C)cccc12)C(=O)N[C@H](C(=O)NCCOCCOCCOCCOCCOCCOCCOCCOCCC(=O)O)[C@@H](C)CC (H-EDVG[X1]GAII[PEG8]-OH)",
    "measured value": "20%"
  },
  {
    "molecule": "CC(C)C[C@H](NC(=O)CNC(=O)CCc1cccc2c1oc1c(CCNC(=O)CNC(=O)[C@H](CCCCN)NC(=O)[C@H](CC(N)=O)NC(=O)[C@@H](N)CO)cccc12)C(=O)N[C@@H](CC[S+](C)[O-])C(=O)N[C@H](C(=O)NCCOCCOCCOCCOCCOCCOCCOCCOCCC(=O)O)C(C)C (stereo not given in full) (H-SNKG[X1]GL[Met(O)]V[PEG8]-OH)",
    "measured value": "< 5%"
  },
  {
    "molecule": "CC[C@H](C)[C@H](NC(=O)[C@H](C)NC(=O)CCc1cccc2c1oc1c(CCNC(=O)[C@H](CO)NC(=O)CNC(=O)[C@@H](NC(=O)[C@H](CC(=O)O)NC(=O)CCOCCOCCOCCOCCOCCOCCOCCOCCN)C(C)C)cccc12)C(=O)N[C@H](C(=O)NCC(=O)O)[C@@H](C)CC (H-[PEG8]DVGS[X1]AIIG-OH)",
    "measured value": "< 5%"
  },
  {
    "molecule": "CC[C@H](C)[C@H](NC(=O)[C@@H](NC(=O)[C@H](C)NC(=O)CNC(=O)CCc1cccc2c1oc1c(CCNC(=O)CNC(=O)[C@@H](NC(=O)[C@H](CC(=O)O)NC(=O)[C@H](CCC(=O)O)NC(=O)CCOCCOCCOCCOCCOCCOCCOCCOCCN)C(C)C)cccc12)[C@@H](C)CC)C(=O)O (H-[PEG8]EDVG[X1]GAII-OH)",
    "measured value": "< 5%"
  },
  {
    "molecule": "CC[C@H](C)[C@H](NC(=O)CCc1cccc2c1oc1c(CCNC(=O)[C@H](CC(N)=O)NC(=O)[C@H](CO)NC(=O)CNC(=O)[C@@H](N)C(C)C)cccc12)C(=O)N[C@H](C(=O)NCC(=O)N[C@@H](CC(C)C)C(=O)NCCOCCOCCOCCOCCOCCOCCOCCOCCC(=O)O)[C@@H](C)CC (H-VGSN[X1]IIGL[PEG8]-OH)",
    "measured value": "39%"
  },
  {
    "molecule": "CC[C@H](C)[C@H](NC(=O)CCc1cccc2c1oc1c(CCNC(=O)[C@H](CC(N)=O)NC(=O)[C@H](CO)NC(=O)CNC(=O)[C@@H](NC(=O)CCOCCOCCOCCOCCOCCOCCOCCOCCN)C(C)C)cccc12)C(=O)N[C@H](C(=O)NCC(=O)N[C@@H](CC(C)C)C(=O)O)[C@@H](C)CC (H-[PEG8]VGSN[X1]IIGL-OH)",
    "measured value": "56%"
  },
  {
    "molecule": "CC[C@H](C)[C@H](NC(=O)[C@H](C)NC(=O)CCc1cccc2c1oc1c(CCNC(=O)[C@H](CO)NC(=O)CNC(=O)[C@@H](NC(=O)[C@@H](N)CC(=O)O)C(C)C)cccc12)C(=O)N[C@H](C(=O)NCC(=O)NCCOCCOCCOCCOCCOCCOCCOCCOCCC(=O)O)[C@@H](C)CC (H-DVGS[X1]AIIG[PEG8]-OH)",
    "measured value": "< 5%"
  },
  {
    "molecule": "CC(C)C[C@H](NC(=O)CNC(=O)CCc1cccc2c1oc1c(CCNC(=O)CNC(=O)[C@H](CCCCN)NC(=O)[C@H](CC(N)=O)NC(=O)[C@H](CO)NC(=O)CCOCCOCCOCCOCCOCCOCCOCCOCCN)cccc12)C(=O)N[C@@H](CC[S+](C)[O-])C(=O)N[C@H](C(=O)O)C(C)C (stereo not given in full) (H-[PEG8]SNKG[X1]GL[Met(O)]V-OH)",
    "measured value": "< 5%"
  },
  {
    "molecule": "CC[C@H](C)[C@H](NC(=O)CCc1cccc2c1oc1c(CCNC(=O)[C@H](CCCCN)NC(=O)[C@H](CC(N)=O)NC(=O)[C@H](CO)NC(=O)CN)cccc12)C(=O)NCC(=O)N[C@@H](CC(C)C)C(=O)N[C@@H](CC[S+](C)[O-])C(=O)NCCOCCOCCOCCOCCOCCOCCOCCOCCC(=O)O (stereo not given in full) (H-GSNK[X1]IGL[Met(O)][PEG8]-OH)",
    "measured value": "< 5%"
  }
]

Lab note: molecule CC[C@H](C)[C@H](NC(=O)CCc1cccc2c1oc1c(CCNC(=O)[C@H](CCCCN)NC(=O)[C@H](CC(N)=O)NC(=O)[C@H](CO)NC(=O)CNC(=O)CCOCCOCCOCCOCCOCCOCCOCCOCCN)cccc12)C(=O)NCC(=O)N[C@@H](CC(C)C)C(=O)N[C@@H](CC[S+](C)[O-])C(=O)O (stereo not given in full) (H-[PEG8]GSNK[X1]IGL[Met(O)]-OH) tested on UniProt:P05067; recorded inhibition was < 5%
